Exercise: for every item that follows, state its recorded relative viability.
System: NCI-H1395
run description: relative viability (nuclei count vs DMSO), 5 days (fraction); higher = more cells survive
condition notes: first compound 0.5 µM
Give bare numbers.

Short answer for Nc1ccn([C@@H]2O[C@H](CO)[C@@H](O)[C@@H]2O)c(=O)n1 [Cytarabine] + O=C(CCCCCCC(=O)Nc1ccccc1)NO [Vorinostat] (partner 1 µM) : relative viability was 0.349

Short answer for Nc1ccn([C@@H]2O[C@H](CO)[C@@H](O)[C@@H]2O)c(=O)n1 [Cytarabine] + CS(=O)(=O)N1CCN(Cc2cc3nc(-c4cccc5[nH]ncc45)nc(N4CCOCC4)c3s2)CC1 [Pictilisib] (partner 1 µM) : relative viability was 0.316

Provide relative viability for all items below, preserving their order.
1. COc1cc2nccc(Oc3ccc(NC(=O)Nc4cc(C)on4)c(Cl)c3)c2cc1OC [Tivozanib] + N=C(N)NC(=N)NCCc1ccccc1 [Phenformin] (partner 250 µM)
2. COc1cc2nccc(Oc3ccc(NC(=O)Nc4cc(C)on4)c(Cl)c3)c2cc1OC [Tivozanib] + CC(=O)c1c(C)c2cnc(Nc3ccc(N4CCNCC4)cn3)nc2n(C2CCCC2)c1=O [Palbociclib] (partner 0.5 µM)
3. COc1cc2nccc(Oc3ccc(NC(=O)Nc4cc(C)on4)c(Cl)c3)c2cc1OC [Tivozanib] + CC(=O)Nc1cccc(-n2c(=O)n(C3CC3)c(=O)c3c(Nc4ccc(I)cc4F)n(C)c(=O)c(C)c32)c1 [Trametinib] (partner 0.02 µM)
4. COc1cc2nccc(Oc3ccc(NC(=O)Nc4cc(C)on4)c(Cl)c3)c2cc1OC [Tivozanib] + Cc1nc(Nc2ncc(C(=O)Nc3c(C)cccc3Cl)s2)cc(N2CCN(CCO)CC2)n1 [Dasatinib] (partner 0.075 µM)
5. COc1cc2nccc(Oc3ccc(NC(=O)Nc4cc(C)on4)c(Cl)c3)c2cc1OC [Tivozanib] + C[C@]1(O)C[C@@H](c2nc(-c3ccc4ccc(-c5ccccc5)nc4c3)c3c(N)nccn32)C1 [Linsitinib] (partner 1 µM)

[0.383, 0.509, 0.938, 0.371, 0.827]

====

Test system: SW 900
run description: relative viability (nuclei count vs DMSO), 5 days (fraction); higher = more cells survive
condition notes: first compound 0.000632 µM
Exercise: for every item that follows, state its recorded relative viability.
Give bare numbers.

Take a look at these entries with their results.
Short answer for CC(=O)O[C@@]12CO[C@@H]1C[C@H](O)[C@@]1(C)C(=O)[C@H](O)C3=C(C)[C@@H](OC(=O)[C@H](O)[C@@H](NC(=O)OC(C)(C)C)c4ccccc4)C[C@@](O)([C@@H](OC(=O)c4ccccc4)[C@H]21)C3(C)C [Docetaxel] + O=C(c1cc(Cc2n[nH]c(=O)c3ccccc23)ccc1F)N1CCN(C(=O)C2CC2)CC1 [Olaparib] (partner 8 µM) : relative viability was 0.353

Short answer for CC(=O)O[C@@]12CO[C@@H]1C[C@H](O)[C@@]1(C)C(=O)[C@H](O)C3=C(C)[C@@H](OC(=O)[C@H](O)[C@@H](NC(=O)OC(C)(C)C)c4ccccc4)C[C@@](O)([C@@H](OC(=O)c4ccccc4)[C@H]21)C3(C)C [Docetaxel] + CC(=O)Nc1cccc(-n2c(=O)n(C3CC3)c(=O)c3c(Nc4ccc(I)cc4F)n(C)c(=O)c(C)c32)c1 [Trametinib] (partner 0.02 µM) : relative viability was 0.287

Next:
Short answer for CC(=O)O[C@@]12CO[C@@H]1C[C@H](O)[C@@]1(C)C(=O)[C@H](O)C3=C(C)[C@@H](OC(=O)[C@H](O)[C@@H](NC(=O)OC(C)(C)C)c4ccccc4)C[C@@](O)([C@@H](OC(=O)c4ccccc4)[C@H]21)C3(C)C [Docetaxel] + N=C(N)NC(=N)NCCc1ccccc1 [Phenformin] (partner 250 µM) : relative viability was 0.235
